- reportedConditions: buffer; pH 7.4; 200.0 µM
Use 20 µg/mL as the dividing line for solubility kinetic, with the line itself on the T side and lower values as F.

Record excerpt, results attached:
Cc1cc(CNC(=O)COc2ccc([N+](=O)[O-])cc2)c2ccccc2n1; F
O=C(Nc1nc2ccsc2c(=O)s1)C1CCC1; F

Query: Could you tell me if the measured solubility kinetic of `COc1ccc(NC(=O)c2cccc3ccccc23)cc1` reaches 20 µg/mL or more?
Reply: F

Query: Could you tell me if the measured solubility kinetic of `COc1cc2c(cc1OC)-c1cc(Nc3cccc(C)c3)nc(=O)n1CC2` reaches 20 µg/mL or more?
Reply: F

Query: Could you tell me if the measured solubility kinetic of `CC(C)N(C(=O)COC(=O)c1ccc(Cl)nc1)C(C)C` reaches 20 µg/mL or more?
Reply: T

Query: Could you tell me if the measured solubility kinetic of `CCCC(=O)Nc1ccc2c(c1)COC2=O` reaches 20 µg/mL or more?
Reply: F

Query: Could you tell me if the measured solubility kinetic of `C=CCn1cccc(C(=O)Nc2ccc(N(C)C)cc2)c1=O` reaches 20 µg/mL or more?
Reply: T

Query: Could you tell me if the measured solubility kinetic of `CC(=O)Nc1ccc(NC(=O)Cn2ccc([N+](=O)[O-])n2)cc1` reaches 20 µg/mL or more?
Reply: T

Query: Could you tell me if the measured solubility kinetic of `Nc1c(NCCc2ccccc2)c2ccccc2oc1=O` reaches 20 µg/mL or more?
Reply: T

Query: Could you tell me if the measured solubility kinetic of `COc1ccc(C(=O)NCCNc2ccc([N+](=O)[O-])cc2)cc1` reaches 20 µg/mL or more?
Reply: F

Query: Could you tell me if the measured solubility kinetic of `Cc1nn(C)c(C)c1NC(=O)COc1ccccc1C#N` reaches 20 µg/mL or more?
Reply: T

Query: Could you tell me if the measured solubility kinetic of OCC(O)CN1CCCC1 (configuration not stated) reaches 20 µg/mL or more?
Reply: T

* * *

Kindly state solubility kinetic for each of the entries shown.
- reportedConditions: buffer; pH 7.4; 200.0 µM
One number for each entry, in mg/mL.

Known solubility kinetic results, listed for orientation:
O=Cc1ccc(Oc2nc(Cl)ncc2F)cc1; 0.0368
Cc1cnc(C(=O)NCCc2ccc(C(F)(F)F)cc2)cn1; 0.0119
COC(=O)C1=C(C)N(C)C(=S)NC1c1cc(OC)ccc1OC (stereo not given); 0.0365
O=C(Cc1csc(-c2ccccc2)n1)NCC(=O)Nc1ccc(F)c(F)c1F; 0.009
CC(CCc1ccccc1)NC(=O)CN(C)Cc1ccc(F)cc1 (stereo not given); 0.0344
CCCNC(=O)c1ccc(COc2cccc3ccccc23)o1; 0.0158
CC(C)c1ccc(C(O)Cc2nc3ccccc3n2C)cc1 (stereo not given); 0.0018
CCc1cccc(C)c1NC(=O)N(C)C1CCCCC1; 0.0356

# map each compound to its solubility kinetic
1. CCN1CCN(S(=O)(=O)c2ccc(OC)cc2)CC1
2. Cc1ccc(S(=O)(=O)N2CCC(C(=O)N3CCC3)CC2)cc1

Reply:
1. 0.0368
2. 0.0474

# map each compound to its solubility kinetic
1. O=C(NC1CCCC1)c1cc(=O)[nH]c2ccccc12
2. Cc1cccc(N2C(=O)c3cccc4cccc(c34)C2=O)c1
3. O=C1CN(C(=O)/C=C/c2ccccc2F)c2ccccc2N1
4. CCCCc1ccc(NC(=O)NCc2ccccn2)cc1
5. CCCC(=O)NCc1ccccc1Cl
6. COc1ccc(OC)c(/C=C(\C)C(=O)c2c(C)cc(C)[nH]c2=O)c1
7. Cc1ccc(N=C2C(=O)Nc3ccccc32)cc1C
8. O=c1[nH]c2cc3ccccc3cc2nc1C(F)(F)F

Reply:
1. 0.0336
2. 0.0015
3. 0.0129
4. 0.0131
5. 0.0302
6. 0.0404
7. 0.024
8. 0.0029

# map each compound to its solubility kinetic
1. CC(C)Sc1nc2c(c(=O)[nH]c(=O)n2C)n1Cc1ccccc1
2. CC(NC(=O)c1ccc(F)cc1)C1CC2CCC1C2 (stereo not given)
3. Cc1cc(C)cc(NC(=O)[C@@H](NC(=O)c2ccco2)C(C)C)c1
4. O=C(Nc1cc(-c2ccccc2)cs1)c1ccco1
5. CC(C)c1ccc(NC(=O)Cn2c(=O)oc3cccnc32)cc1
6. Cc1ccc(C(=O)C[n+]2ccccc2C)cc1[N+](=O)[O-].[Br-]
7. NC(=O)c1cc(S(=O)(=O)N2CCc3ccccc3C2)cs1
8. CC(C)COc1ncnc2c1sc1nc3c(cc12)COC(C)(C)C3

Reply:
1. 0.0028
2. 0.0069
3. 0.0028
4. 0.0047
5. 0.0077
6. 0.0483
7. 0.002
8. 0.0037

The reported numbers originate from PubChem BioAssay AID1996.
